Consider the following binders; for each one, report its koff.
target: CD3 (antigen of the binding affinity table of Example 1) (UniProt P07766)
assay.summary: kinetic fit with two-state parameters; method not given
Field: numeric (s⁻¹). Do not append units.

Returns the measured koff for the input binder. Input: H3L2 (antibody, V domains shown) VH: QVQLVQSGAEVKKPGASVKMSCKASGYTFTRYTMHWVRQAPGQGLEWIGYINPSRGYTNYNQKFKDRATMTTDKSISTAYMELSRLRSDDTAVYYCARYYDDHYSLDYWGQGTTLTVSS VL: DIQMTQSPSSLSASVGDRVTMTCSASSSVSYMNWYQQKPGKAPKLLIYDTSKLASGVPSRFSGSGSGTDFTLTISSMQPEDFATYYCQQWSSNPFTFGSGTKLEINR
0.139

Returns the measured koff for the input binder. Input: H3L1 (antibody, V domains shown) VH: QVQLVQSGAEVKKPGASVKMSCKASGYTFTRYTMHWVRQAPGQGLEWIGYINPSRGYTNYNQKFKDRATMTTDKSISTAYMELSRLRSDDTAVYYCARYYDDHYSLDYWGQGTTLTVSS VL: DIQMTQSPSSLSASVGDRVTMTCSASSSVSYMNWYQQKPGKAPKRLIYDTSKLASGVPSRFSGSGSGTDFTLTISSLQPEDFATYYCQQWSSNPFTFGSGTKLEINR
0.155

Returns the measured koff for the input binder. Input: H3L3 (antibody, V domains shown) VH: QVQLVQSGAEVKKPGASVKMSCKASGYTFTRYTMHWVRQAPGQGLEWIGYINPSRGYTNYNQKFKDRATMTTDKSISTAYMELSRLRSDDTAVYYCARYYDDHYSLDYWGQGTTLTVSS VL: DIQLTQSPSSLSASVGDRVTITCSASSSVSYMNWYQQKPGKAPKLLIYDTSKLASGVPSRFSGSGSGTDYTLTISSLQPEDFATYYCQQWSSNPFTFGSGTKLEINR
0.402
